Measured values drawn from patent US6387696 for this set.

Biological target: human calcium channel α1B-1 subunit alone on transfected HEK293 cells (human)
Sequence (B1AQK5 whole entry): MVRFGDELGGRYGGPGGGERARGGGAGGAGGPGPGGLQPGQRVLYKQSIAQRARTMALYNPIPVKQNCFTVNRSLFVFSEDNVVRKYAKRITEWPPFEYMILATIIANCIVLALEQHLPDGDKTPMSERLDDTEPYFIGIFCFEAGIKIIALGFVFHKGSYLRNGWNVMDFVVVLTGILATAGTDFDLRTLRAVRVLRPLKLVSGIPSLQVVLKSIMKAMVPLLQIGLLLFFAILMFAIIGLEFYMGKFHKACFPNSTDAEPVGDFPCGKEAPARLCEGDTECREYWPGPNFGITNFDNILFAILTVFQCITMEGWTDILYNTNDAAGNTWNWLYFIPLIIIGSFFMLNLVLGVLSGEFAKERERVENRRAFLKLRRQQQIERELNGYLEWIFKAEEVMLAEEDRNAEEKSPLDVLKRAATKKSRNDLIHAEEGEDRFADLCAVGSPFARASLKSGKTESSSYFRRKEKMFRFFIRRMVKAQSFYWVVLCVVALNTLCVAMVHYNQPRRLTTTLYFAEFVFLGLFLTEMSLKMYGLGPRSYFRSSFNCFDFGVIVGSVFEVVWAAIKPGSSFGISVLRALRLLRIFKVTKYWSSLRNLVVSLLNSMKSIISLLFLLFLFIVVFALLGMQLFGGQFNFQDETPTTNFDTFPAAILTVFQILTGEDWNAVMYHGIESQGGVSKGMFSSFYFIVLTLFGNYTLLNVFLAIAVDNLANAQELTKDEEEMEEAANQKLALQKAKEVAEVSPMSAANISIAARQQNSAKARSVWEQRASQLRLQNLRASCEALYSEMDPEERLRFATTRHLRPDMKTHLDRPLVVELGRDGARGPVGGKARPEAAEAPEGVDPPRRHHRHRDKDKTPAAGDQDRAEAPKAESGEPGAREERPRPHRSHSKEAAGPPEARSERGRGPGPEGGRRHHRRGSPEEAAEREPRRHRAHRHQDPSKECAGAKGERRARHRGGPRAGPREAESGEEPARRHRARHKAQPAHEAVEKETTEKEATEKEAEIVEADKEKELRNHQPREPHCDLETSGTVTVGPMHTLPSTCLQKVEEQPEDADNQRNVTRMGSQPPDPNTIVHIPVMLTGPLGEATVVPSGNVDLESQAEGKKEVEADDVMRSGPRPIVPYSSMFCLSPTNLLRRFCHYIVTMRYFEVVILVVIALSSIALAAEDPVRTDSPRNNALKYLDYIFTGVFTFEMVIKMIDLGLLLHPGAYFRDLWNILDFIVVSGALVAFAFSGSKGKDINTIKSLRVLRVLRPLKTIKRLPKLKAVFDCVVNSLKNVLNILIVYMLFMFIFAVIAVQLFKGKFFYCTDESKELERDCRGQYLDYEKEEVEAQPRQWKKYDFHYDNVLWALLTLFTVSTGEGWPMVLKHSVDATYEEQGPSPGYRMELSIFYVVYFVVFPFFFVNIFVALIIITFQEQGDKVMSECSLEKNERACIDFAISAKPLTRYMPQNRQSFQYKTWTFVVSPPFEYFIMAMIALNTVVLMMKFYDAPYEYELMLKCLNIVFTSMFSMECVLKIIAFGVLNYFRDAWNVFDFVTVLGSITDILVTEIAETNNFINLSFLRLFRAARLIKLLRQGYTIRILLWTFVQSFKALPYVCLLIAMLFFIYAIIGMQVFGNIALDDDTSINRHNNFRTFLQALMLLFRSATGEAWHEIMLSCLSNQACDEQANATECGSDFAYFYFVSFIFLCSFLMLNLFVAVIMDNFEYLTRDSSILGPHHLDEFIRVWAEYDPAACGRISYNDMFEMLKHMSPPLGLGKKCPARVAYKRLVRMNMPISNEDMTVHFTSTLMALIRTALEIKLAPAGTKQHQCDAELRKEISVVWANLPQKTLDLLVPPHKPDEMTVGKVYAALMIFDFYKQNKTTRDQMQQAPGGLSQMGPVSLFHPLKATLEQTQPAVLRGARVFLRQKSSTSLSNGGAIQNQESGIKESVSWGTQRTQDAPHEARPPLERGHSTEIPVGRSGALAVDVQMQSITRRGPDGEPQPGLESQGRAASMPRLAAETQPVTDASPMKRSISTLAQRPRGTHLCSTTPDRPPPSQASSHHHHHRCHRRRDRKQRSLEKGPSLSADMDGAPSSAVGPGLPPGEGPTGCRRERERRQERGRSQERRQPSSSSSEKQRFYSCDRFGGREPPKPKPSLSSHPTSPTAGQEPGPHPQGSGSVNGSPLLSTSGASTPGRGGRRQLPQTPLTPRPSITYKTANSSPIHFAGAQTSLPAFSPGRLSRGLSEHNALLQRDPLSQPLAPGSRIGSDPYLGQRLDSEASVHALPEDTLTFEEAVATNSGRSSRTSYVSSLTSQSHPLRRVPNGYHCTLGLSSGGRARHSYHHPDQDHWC
property.label: Kd

## Input Return reported Kd; argument: CKSPGSSCSPTSYNCCRSCNPYTKRCY (modifications not checked) [125I-ω-CgTx GVIA, P01522 46-72]
## Output 0.0317 nM
